# Tested on: HepG2
# RUN_DESCRIPTION: drug sensitivity score (DSS) for viability; higher = more toxic; extreme values may be limits of the assay
# TEST_CONTEXT: 72 h
TEST_READOUT: drug sensitivity score
# output: bare number, no unit

Below: 2 molecules and their reported drug sensitivity score.
# MOLECULE, TEST_READOUT, ASSAY_VALUE
data = [
    ("Cc1n[nH]c2ccc(-c3cncc(OC[C@@H](N)Cc4ccccc4)c3)cc12", "drug sensitivity score", 11.3),
    ("N=C(N)NCCC[C@@H](NC(=O)[C@@H]1CCCN1C(=O)[C@@H]1CSSCCC(=O)N[C@@H](Cc2ccc(O)cc2)C(=O)N[C@@H](Cc2ccccc2)C(=O)N[C@@H](CCC(N)=O)C(=O)N[C@@H](CC(N)=O)C(=O)N1)C(=O)NCC(N)=O [desmopressin-acetate]", "drug sensitivity score", 0),
]

Find drug sensitivity score for O=C(CCc1ccc(O)cc1)c1c(O)cc(O)cc1O on HepG2 and write it down. 0
